Item-by-item account of pIC50
target: PRMT5/MEP50 complex (Homo sapiens, UniProt O14744); experiment: Inhibition of recombinant human fetal brain FLAG-tagged PRMT5/full length human testis 6His-tagged MEP50 expressed in baculovirus infected insect Sf9 cells using human histone H4 (1 to 15 residues) as substrate preincubated for 30 mins followed by [3H]-SAM addition
Sequence (O14744 whole entry, the tested form may be a part): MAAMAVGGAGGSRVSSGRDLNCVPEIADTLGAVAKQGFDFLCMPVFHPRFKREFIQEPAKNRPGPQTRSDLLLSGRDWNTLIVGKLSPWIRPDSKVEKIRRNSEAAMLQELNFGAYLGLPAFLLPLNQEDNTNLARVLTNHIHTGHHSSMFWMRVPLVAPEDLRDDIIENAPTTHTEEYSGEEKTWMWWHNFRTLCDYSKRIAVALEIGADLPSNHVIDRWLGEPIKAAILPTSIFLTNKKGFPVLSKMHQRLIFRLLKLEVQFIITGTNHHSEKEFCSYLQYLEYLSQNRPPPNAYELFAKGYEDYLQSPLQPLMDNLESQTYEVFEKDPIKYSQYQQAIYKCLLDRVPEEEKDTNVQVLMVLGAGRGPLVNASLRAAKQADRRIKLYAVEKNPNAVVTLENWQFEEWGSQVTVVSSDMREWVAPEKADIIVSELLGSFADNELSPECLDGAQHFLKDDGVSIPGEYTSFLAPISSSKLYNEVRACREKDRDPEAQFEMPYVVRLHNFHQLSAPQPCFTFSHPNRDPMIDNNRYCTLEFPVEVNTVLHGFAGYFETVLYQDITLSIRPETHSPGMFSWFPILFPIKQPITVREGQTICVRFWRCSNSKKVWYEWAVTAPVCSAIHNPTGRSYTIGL
Sequence (Q9BQA1 whole entry, further chain, the tested form may be a part): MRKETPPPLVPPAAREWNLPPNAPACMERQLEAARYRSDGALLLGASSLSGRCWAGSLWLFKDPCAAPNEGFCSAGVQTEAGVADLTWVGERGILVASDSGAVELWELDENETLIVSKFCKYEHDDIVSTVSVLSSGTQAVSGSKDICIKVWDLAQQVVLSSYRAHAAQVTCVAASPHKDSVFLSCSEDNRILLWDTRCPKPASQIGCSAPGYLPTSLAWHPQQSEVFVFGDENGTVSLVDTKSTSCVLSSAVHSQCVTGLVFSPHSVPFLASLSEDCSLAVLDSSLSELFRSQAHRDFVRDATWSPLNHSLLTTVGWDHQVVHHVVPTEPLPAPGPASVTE
pIC50: −log10 of the molar value.

# count of solved cases: 3
Cn1cnc2ccc(-c3cccc(OC[C@H](O)CN4CCc5ccccc5C4)c3)cc21 | > 7.00
O=C(NCC(O)CN1CCc2ccccc2C1)c1cc(NC2CCOCC2)ccn1 (stereo not drawn) | > 7.00
O=C(NC[C@@H](O)CN1CCc2ccccc2C1)Oc1ccccc1 | > 7.00

Lookup: Could you tell me which pIC50 is on file for OC(COc1ccc(C2CCNCC2)cc1)CN1CCc2ccccc2C1 (stereo not drawn) ?
Found: 5.00 to 6.00

Lookup: Next: O=C(COc1cccc2c1OCCO2)NCC(O)CN1CCc2ccccc2C1 (stereo not drawn)
Found: > 7.00

Lookup: Next: CN(C)S(=O)(=O)c1cccc(-c2cccc(OCC(O)CN3CCc4ccccc4C3)c2)c1 (stereo not drawn)
Found: < 4.40

Lookup: Next: O=C(c1cncc(-c2cccc(OCC(O)CN3CCc4ccccc4C3)c2)c1)N1CCCC1 (stereo not drawn)
Found: 5.00 to 6.00

Lookup: Next: Cn1cnc2ccc(-c3ccnc(NC[C@H](O)CN4CCc5ccccc5C4)c3)cc21
Found: > 7.00

Lookup: Next: OC(COc1cccc(-c2cccnc2F)c1)CN1CCc2ccccc2C1 (stereo not drawn)
Found: 6.00 to 7.00

Lookup: Next: COc1ccccc1OCC(=O)NCC(O)CN1CCc2ccccc2C1 (stereo not drawn)
Found: > 7.00
